Provide the reported kon of each item.
system.name: T1, Human Angiopoietin-2 full-length (hAng2) (human, UniProt O15123 19-496)
T1 construct: The cell assays used full-length hAng2 from R&D Systems; also called human Ang2; A2
T1 sequence: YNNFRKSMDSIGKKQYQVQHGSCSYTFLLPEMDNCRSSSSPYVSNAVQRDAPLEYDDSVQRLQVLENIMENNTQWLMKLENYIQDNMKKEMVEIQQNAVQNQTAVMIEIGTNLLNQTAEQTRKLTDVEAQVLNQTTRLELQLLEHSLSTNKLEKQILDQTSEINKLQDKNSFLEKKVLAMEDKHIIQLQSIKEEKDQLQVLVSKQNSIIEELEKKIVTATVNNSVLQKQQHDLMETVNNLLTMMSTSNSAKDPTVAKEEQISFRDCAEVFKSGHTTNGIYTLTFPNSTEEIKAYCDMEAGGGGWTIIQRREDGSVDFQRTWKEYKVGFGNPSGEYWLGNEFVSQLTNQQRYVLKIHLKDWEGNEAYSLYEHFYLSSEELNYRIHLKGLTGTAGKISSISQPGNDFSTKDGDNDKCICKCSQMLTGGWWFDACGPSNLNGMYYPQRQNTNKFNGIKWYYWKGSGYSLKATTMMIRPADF
procedure.details: BLI (Octet), antibody fixed on AR2G sensor, hAng2 3.125-50 nM in solution, 1:1 global fit
Protocol: The affinity of humanized anti-Ang2 antibody against hAng2 was measured using Octet system (ForteBio). Specifically, buffer and samples were measured in total 200 μl/well using Black 96-well plates (96 well F-type black plates, Greiner). […] After the hydration, humanized anti-Ang2 antibody was diluted in 10 mM sodium acetate, pH 6.0 buffer at a concentration of 10 μg/ml, fixed on AR2G biosensor, and blocked with 1M ethanolamine. […]
Numbers only, in M⁻¹ s⁻¹.

INSERT INTO assay_data (binder, readout_label, unit_symbol, reported_result) VALUES
  ('humanized anti-Ang2 antibody 2C8H41 (antibody, V domains shown, Full-length human IgG1) VH: QVQLVQSGAEVKKPGASVKVSCKASGYSFTSYWMHWVKQAPGQGLEWIGMIDPSDSETRLNQKFKDKASMTRDTSTSTVYMELSSLRSEDTAVYYCARRFYYGSDWYFDVWGQGTLVTVSS VL: DIQLTQSPSFLSASVGDRVTITCKASQDVGTAVAWYQQKPGKAPKLLIYWASTRHTGVPSRFSGSGSGTEFTLTISSLQPEDFATYYCQQYSSYPLTFGQGTKVEIK', 'kon', 'M⁻¹ s⁻¹', 67000);

// each binder listed below needs its kon
1. humanized anti-Ang2 antibody 2C8H13 (antibody, V domains shown, Full-length human IgG1) VH: QVQLVQSGAEVKKPGASVKVSCKASGYTFTSYWMHWVRQAPGQGLEWMGMIDPSDSETRLNQKFKDRVTMTRDTSTSTVYMELSSLRSEDTAVYYCARRFYYGSDWYFDVWGQGTLVTVSS VL: DIQLTQSPSFLSASVGDRVSITCKASQDVGTAVAWYQQKPGKAPKLLIYWASTRHTGVPDRFSGSGSGTEFTLTISSLQPEDFADYFCQQYSSYPLTFGQGTKVEIK
2. humanized anti-Ang2 antibody 2C8H21 (antibody, V domains shown, Full-length human IgG1) VH: QVQLVQSGAEVKKPGASVKVSCKASGYSFTSYWMHWVRQAPGQGLEWIGMIDPSDSETRLNQKFKDRVTMTRDTSTSTVYMELSSLRSEDTAVYYCARRFYYGSDWYFDVWGQGTLVTVSS VL: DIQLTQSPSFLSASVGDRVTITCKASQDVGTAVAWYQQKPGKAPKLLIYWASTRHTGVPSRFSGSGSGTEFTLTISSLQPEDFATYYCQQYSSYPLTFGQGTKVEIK

Resp:
[113000, 111000]
